# Test system: pylorous ligated rats
# EXPERIMENT: Antisecretory activity in the pylorous ligated rat model
# Format: in vivo, male Sprague-Dawley rats
# DETAILS: Rattus norvegicus, 4 h; oral dose 12.5 mg/kg; read-out: Percent inhibition of acid output
Where a name gives a salt, the structure may show the parent alone.
QUANTITY NAME: inhibition in vivo at 12.5 mg/kg (%)
Give the quantity in %, number only.

Example cases with answers are listed next.
>>> quantitative_result("CCCCCC(C)C(C)c1cc(O)c(C2=CCN(CCc3ccccc3)CC2)c(O)c1 (centres unmarked) [Example XX, hydrochloride]")
9.7
>>> quantitative_result("CCCCCC(C)C(C)c1cc(O)c(C2=CCN(C)CC2)c(O)c1 (centres unmarked)")
10.8

Request: Reported inhibition in vivo at 12.5 mg/kg, compound CCCCCc1cc(O)c(C2CCN(CCc3ccccc3)CC2)c(O)c1 [Example XXI, hydrochloride] : ____
Result: 0.5

Request: Okay, and CCCCCC(C)C(C)c1cc(O)c(C2=CCN(Cc3ccccc3)CC2)c(O)c1.Cl (centres unmarked) [Example XIV, hydrochloride] ?
Result: -17.3

Request: Follow-up item: CC(C)c1cc(O)c(C2=CCN(C)CC2)c(O)c1.Cl [Example VI, hydrochloride]
Result: 59.4
